- Tested on: ICR strain mice
- Procedure Summary: Pulmonary toxicity (pulmonary fibrosis) in mice, intraperitoneal injection
- Type: in vivo
- Applied Conditions: 5 mg/kg i.p. once a day for 10 days; autopsy after 5 weeks
Value Kind: Incidence of pulmonary fibrosis, % (%)
Provide only the numeric value, understood in %.

COc1ccc(CNCCCN(C)CCCNC(=O)c2csc(-c3csc(CCNC(=O)C(NC(=O)C(C)C(O)C(C)NC(=O)C(NC(=O)c4nc(C(CC(N)=O)NCC(N)C(N)=O)nc(N)c4C)C(OC4OC(CO)C(O)C(O)C4OC4OC(CO)C(O)C(OC(N)=O)C4O)c4cnc[nH]4)C(C)O)n3)n2)c(OC)c1 (stereo not shown): 33
Cc1c(N)nc(C(CC(N)=O)NCC(N)C(N)=O)nc1C(=O)NC(C(=O)NC(C)C(O)C(C)C(=O)NC(C(=O)NCCc1nc(-c2nc(C(=O)NCCC[N+](C)(C)CCCN(Cc3ccccc3)Cc3ccccc3)cs2)cs1)C(C)O)C(OC1OC(CO)C(O)C(O)C1OC1OC(CO)C(O)C(OC(N)=O)C1O)c1cnc[nH]1 (stereo not shown): 0
Cc1c(N)nc(C(CC(N)=O)NCC(N)C(N)=O)nc1C(=O)NC(C(=O)NC(C)C(O)C(C)C(=O)NC(C(=O)NCCc1nc(-c2nc(C(=O)NCCCN(C)CCCNCC3CCCCCCC3)cs2)cs1)C(C)O)C(OC1OC(CO)C(O)C(O)C1OC1OC(CO)C(O)C(OC(N)=O)C1O)c1cnc[nH]1.Cl.Cl.Cl (stereo not shown): 0
Cc1c(N)nc(C(CC(N)=O)NCC(N)C(N)=O)nc1C(=O)NC(C(=O)NC(C)C(O)C(C)C(=O)NC(C(=O)NCCc1nc(-c2nc(C(=O)NCCCN(C)CCCNCc3ccc(Cl)cc3Cl)cs2)cs1)C(C)O)C(OC1OC(CO)C(O)C(O)C1OC1OC(CO)C(O)C(OC(N)=O)C1O)c1cnc[nH]1 (stereo not shown): 11
Cc1c(N)nc(C(CC(N)=O)NCC(N)C(N)=O)nc1C(=O)NC(C(=O)NC(C)C(O)C(C)C(=O)NC(C(=O)NCCc1nc(-c2nc(C(=O)NCCCN(C)CCCNCC3CCCCCCCCCC3)cs2)cs1)C(C)O)C(OC1OC(CO)C(O)C(O)C1OC1OC(CO)C(O)C(OC(N)=O)C1O)c1cnc[nH]1 (stereo not shown): 0
Cc1c(N)nc(C(CC(N)=O)NCC(N)C(N)=O)nc1C(=O)NC(C(=O)NC(C)C(O)C(C)C(=O)NC(C(=O)NCCc1nc(-c2nc(C(=O)NCCCN3CCN(CCCNCC4CCCCCCC4)CC3)cs2)cs1)C(C)O)C(OC1OC(CO)C(O)C(O)C1OC1OC(CO)C(O)C(OC(N)=O)C1O)c1cnc[nH]1 (stereo not shown): 0

Turning to the following compound.
Query Cc1c(N)nc(C(CC(N)=O)NCC(N)C(N)=O)nc1C(=O)NC(C(=O)NC(C)C(O)C(C)C(=O)NC(C(=O)NCCc1nc(-c2nc(C(=O)NCCCN(C)CCCN(Cc3ccc(OCc4ccc(Cl)cc4)c(OCc4ccc(Cl)cc4)c3)Cc3ccc(OCc4ccc(Cl)cc4)c(OCc4ccc(Cl)cc4)c3)cs2)cs1)C(C)O)C(OC1OC(CO)C(O)C(O)C1OC1OC(CO)C(O)C(OC(N)=O)C1O)c1cnc[nH]1 (stereo not shown) yields Incidence of pulmonary fibrosis, % of 0

Cited source for all entries: patent US4568490A
